Form field: remaining at 1 h (one value per entry).
experiment: Metabolic stability in Sprague-Dawley rat plasma assessed as compound remaining after 60 mins by LC-MS/MS analysis
Assay type: ADME, cell-free
runConditions: read-out: Stability
propertyLabel: remaining at 1 h (%)

molecule=Cc1c(CC(=O)NCCO[N+](=O)[O-])cc(-c2ccc(S(C)(=O)=O)cc2)n1-c1ccc(F)cc1 measuredresult=100
molecule=Cc1c(CC(=O)OCCO[N+](=O)[O-])cc(-c2ccc(S(C)(=O)=O)cc2)n1-c1cccc(F)c1 measuredresult=0
molecule="Cc1c(CC(=O)NC(CO[N+](=O)[O-])C(=O)O)cc(-c2ccc(S(C)(=O)=O)cc2)n1-c1cccc(F)c1 (racemic)" measuredresult=57.1
molecule="Cc1c(C(N)C(=O)OCCO[N+](=O)[O-])cc(-c2ccc(S(C)(=O)=O)cc2)n1-c1ccc(F)cc1 (centres undefined)" measuredresult=0
